# protocol-notes: Therapeutic index, ratio of CC50 for human MT4 cells to EC50 for HIV1 3B infected in MT4 cells
# Type: cell-based
# experimental-context: read-out: Ratio CC50/EC50
For each record, write down the corresponding selectivity ratio.
// no unit string in output, number only

Note to self: selectivity ratio recorded for Cc1nc(N2Nc3onc(-c4ccccc4)c3C2c2ccc(Cl)cc2)sc1/N=N/c1ccc(Cl)cc1 (configuration not stated) was 739

The molecule listed as CC1=C(/N=N/c2ccc(Cl)cc2)N=C(N2Nc3onc(-c4ccccc4)c3C2c2ccc(Cl)cc2)NN1 (configuration not stated) shows selectivity ratio equal to 1220

The molecule listed as CC1=C(/N=N/c2ccc(C)cc2)N=C(N2Nc3onc(-c4ccccc4)c3C2c2ccc(Cl)cc2)NN1 (configuration not stated) has a reported selectivity ratio of 673

// selectivity ratio lookup, molecule = Cc1nc(N2Nc3onc(-c4ccccc4)c3C2c2ccc(Cl)cc2)sc1/N=N/c1ccc(Br)cc1 (configuration not stated) , result: 1440

Lookup result for Cc1csc(N2Nc3onc(-c4ccccc4)c3C2c2ccc(Cl)cc2)n1 (configuration not stated) ; measured selectivity ratio: 657

// COc1ccc(/N=N/c2sc(N3Nc4onc(-c5ccccc5)c4C3c3ccc(Cl)cc3)nc2C)cc1 (configuration not stated) : selectivity ratio value = 1050

Given item CC1=C(/N=N/c2ccccc2)N=C(N2Nc3onc(-c4ccccc4)c3C2c2ccc(Cl)cc2)NN1 (configuration not stated) , the value recorded as its selectivity ratio is 1360

The measured selectivity ratio associated with Cc1ccc(/N=N/c2sc(N3Nc4onc(-c5ccccc5)c4C3c3ccc(Cl)cc3)nc2C)cc1 (configuration not stated) reads 818

Sample Cc1nc(N2Nc3onc(-c4ccccc4)c3C2c2ccc(Cl)cc2)sc1/N=N/c1ccccc1 (configuration not stated) ; selectivity ratio observed: 867

The reported value for NC(=S)N1Nc2onc(-c3ccccc3)c2C1c1ccc(Cl)cc1 (configuration not stated) in terms of selectivity ratio is 1210

Reported selectivity ratio of N/N=C(\N)N1Nc2onc(-c3ccccc3)c2C1c1ccc(Cl)cc1 (configuration not stated) : 586

Per the record, Cc1nc(N2Nc3onc(-c4ccccc4)c3C2c2ccc(Cl)cc2)sc1/N=N/c1ccc([N+](=O)[O-])cc1 (configuration not stated) has selectivity ratio of 1560

----------
# protocol-notes: Therapeutic index, ratio of CC50 for human CEM-SS cells to EC50 for HIV1 RF infected in CEM-SS cells
# Format: cell-based
# experimental-context: read-out: Ratio CC50/EC50
Kindly state selectivity ratio for each of the entries shown.
The reply should be a number, written without any unit.

Memo: Cc1nc(N2Nc3onc(-c4ccccc4)c3C2c2ccc(Cl)cc2)sc1/N=N/c1ccc([N+](=O)[O-])cc1 (configuration not stated) , reported selectivity ratio: 1000

selectivity ratio measured on Cc1ccc(/N=N/c2sc(N3Nc4onc(-c5ccccc5)c4C3c3ccc(Cl)cc3)nc2C)cc1 (configuration not stated) = 1000

Entry under test: Cc1csc(N2Nc3onc(-c4ccccc4)c3C2c2ccc(Cl)cc2)n1 (configuration not stated) . Its selectivity ratio was 936

Lab note: measured selectivity ratio of COc1ccc(/N=N/c2sc(N3Nc4onc(-c5ccccc5)c4C3c3ccc(Cl)cc3)nc2C)cc1 (configuration not stated) was 971

Field selectivity ratio (entry Cc1nc(N2Nc3onc(-c4ccccc4)c3C2c2ccc(Cl)cc2)sc1/N=N/c1ccc(Cl)cc1 (configuration not stated) ) reads 917

Reported selectivity ratio for NC(=S)N1Nc2onc(-c3ccccc3)c2C1c1ccc(Cl)cc1 (configuration not stated) was 462

get_value(item= Cc1nc(N2Nc3onc(-c4ccccc4)c3C2c2ccc(Cl)cc2)sc1/N=N/c1ccc(Br)cc1 (configuration not stated) , readout=selectivity ratio) returns 412

The value of selectivity ratio measured for the compound N/N=C(\N)N1Nc2onc(-c3ccccc3)c2C1c1ccc(Cl)cc1 (configuration not stated) turned out to be 739

// field: selectivity ratio; key: Cc1nc(N2Nc3onc(-c4ccccc4)c3C2c2ccc(Cl)cc2)sc1/N=N/c1ccccc1 (configuration not stated) ; value = 833

# selectivity ratio of CC1=C(/N=N/c2ccccc2)N=C(N2Nc3onc(-c4ccccc4)c3C2c2ccc(Cl)cc2)NN1 (configuration not stated) = 523

For CC1=C(/N=N/c2ccc(Cl)cc2)N=C(N2Nc3onc(-c4ccccc4)c3C2c2ccc(Cl)cc2)NN1 (configuration not stated) the compound record lists selectivity ratio as 403

CC1=C(/N=N/c2ccc(C)cc2)N=C(N2Nc3onc(-c4ccccc4)c3C2c2ccc(Cl)cc2)NN1 (configuration not stated) yielded selectivity ratio of 837

----------
# protocol-notes: Cytotoxicity against human CEM-SS cells by MTS assay
# Format: cell-based
measured-endpoint: CC50
A bare number is not enough; add the unit after it.

Looking up Cc1ccc(/N=N/c2sc(N3Nc4onc(-c5ccccc5)c4C3c3ccc(Cl)cc3)nc2C)cc1 (centres undefined) , I found its CC50 recorded as 250 nM

CC50 in this record for Cc1csc(N2Nc3onc(-c4ccccc4)c3C2c2ccc(Cl)cc2)n1 (centres undefined) : 440 nM

Sample CC1=C(/N=N/c2ccccc2)N=C(N2Nc3onc(-c4ccccc4)c3C2c2ccc(Cl)cc2)NN1 (centres undefined) ; CC50 observed: 230 nM

Reported CC50 ( Cc1nc(N2Nc3onc(-c4ccccc4)c3C2c2ccc(Cl)cc2)sc1/N=N/c1ccc([N+](=O)[O-])cc1 (centres undefined) ) = 250 nM

----------
# protocol-notes: Cytotoxicity against human CEM-SS cells by MTS assay
# Format: cell-based
Define the label as T when CC50 is strictly less than 300 nM and as F in all remaining cases.

For this compound, is CC50 lower than 300 nM? NC(=S)N1Nc2onc(-c3ccccc3)c2C1c1ccc(Cl)cc1 (centres undefined)
F

Is 300 nM strictly greater than the compound's reported CC50? compound: CC1=C(/N=N/c2ccc(Cl)cc2)N=C(N2Nc3onc(-c4ccccc4)c3C2c2ccc(Cl)cc2)NN1 (centres undefined)
T

Below 300 nM on CC50? Entry O=C1Nc2ccc(Cl)cc2[C@@](C#CC2CC2)(C(F)(F)F)O1 [EFAVIRENZ]
F

Please determine if Cc1nc(N2Nc3onc(-c4ccccc4)c3C2c2ccc(Cl)cc2)sc1/N=N/c1ccccc1 (centres undefined) is below 300 nM in terms of CC50.
F

Hi there! Is CC50 for Cc1nc(N2Nc3onc(-c4ccccc4)c3C2c2ccc(Cl)cc2)sc1/N=N/c1ccc(Br)cc1 (centres undefined) below 300 nM, do you know?
T

Find out if reported CC50 for Cc1nc(N2Nc3onc(-c4ccccc4)c3C2c2ccc(Cl)cc2)sc1/N=N/c1ccc(Cl)cc1 (centres undefined) is less than 300 nM
F

Say whether its CC50 is strictly beneath 300 nM. Entry: COc1ccc(/N=N/c2sc(N3Nc4onc(-c5ccccc5)c4C3c3ccc(Cl)cc3)nc2C)cc1 (centres undefined)
F

State whether 300 nM exceeds CC50 recorded for N/N=C(\N)N1Nc2onc(-c3ccccc3)c2C1c1ccc(Cl)cc1 (centres undefined) .
F

Quick check: CC50 of CC1=C(/N=N/c2ccc(C)cc2)N=C(N2Nc3onc(-c4ccccc4)c3C2c2ccc(Cl)cc2)NN1 (centres undefined) under 300 nM?
F

----------
# study-system: Human immunodeficiency virus type 1 reverse transcriptase (Human immunodeficiency virus 1, UniProt Q72547)
# protocol-notes: Inhibition of HIV1 recombinant reverse transcriptase assessed as incorporation of [32P]GTP into poly(rC).oligo(dG) template primer
measured-endpoint: IC50 (nM)
Numbers only; they are read as nM.

Looking up CC1=C(/N=N/c2ccccc2)N=C(N2Nc3onc(-c4ccccc4)c3C2c2ccc(Cl)cc2)NN1 (stereo not given) , I see its IC50 listed as 0.045

Short answer for CC1=C(/N=N/c2ccc(C)cc2)N=C(N2Nc3onc(-c4ccccc4)c3C2c2ccc(Cl)cc2)NN1 (stereo not given) : IC50 was 0.019

Looking up Cc1nc(N2Nc3onc(-c4ccccc4)c3C2c2ccc(Cl)cc2)sc1/N=N/c1ccc([N+](=O)[O-])cc1 (stereo not given) , I found its IC50 recorded as 0.027

The recorded IC50 for Cc1csc(N2Nc3onc(-c4ccccc4)c3C2c2ccc(Cl)cc2)n1 (stereo not given) is 0.046

COc1ccc(/N=N/c2sc(N3Nc4onc(-c5ccccc5)c4C3c3ccc(Cl)cc3)nc2C)cc1 (stereo not given) yielded IC50 of 0.036

----------
Kindly state CC50 for each of the entries shown.
# protocol-notes: Cytotoxicity against human MT4 cells by MTT assay
# Assay type: cell-based
Your answer is read as nM, so omit the unit and give the number.

Recorded result, Cc1nc(N2Nc3onc(-c4ccccc4)c3C2c2ccc(Cl)cc2)sc1/N=N/c1ccc(Cl)cc1 (stereo not drawn) , CC50: 340

The compound listed as CC1=C(/N=N/c2ccccc2)N=C(N2Nc3onc(-c4ccccc4)c3C2c2ccc(Cl)cc2)NN1 (stereo not drawn) has a reported CC50 of 450

Input `O=C1Nc2ccc(Cl)cc2[C@@](C#CC2CC2)(C(F)(F)F)O1` . Output CC50: 320

Summary for this compound, NC(=S)N1Nc2onc(-c3ccccc3)c2C1c1ccc(Cl)cc1 (stereo not drawn) : CC50 is 340

CC50 reported for this compound COc1ccc(/N=N/c2sc(N3Nc4onc(-c5ccccc5)c4C3c3ccc(Cl)cc3)nc2C)cc1 (stereo not drawn) : 460

Kindly note the recorded CC50 for Cc1ccc(/N=N/c2sc(N3Nc4onc(-c5ccccc5)c4C3c3ccc(Cl)cc3)nc2C)cc1 (stereo not drawn) , which is 450

The reported CC50 of the compound CC1=C(/N=N/c2ccc(Cl)cc2)N=C(N2Nc3onc(-c4ccccc4)c3C2c2ccc(Cl)cc2)NN1 (stereo not drawn) was 450

In plain terms, CC1=C(/N=N/c2ccc(C)cc2)N=C(N2Nc3onc(-c4ccccc4)c3C2c2ccc(Cl)cc2)NN1 (stereo not drawn) has a documented CC50 of 330

Entry Cc1nc(N2Nc3onc(-c4ccccc4)c3C2c2ccc(Cl)cc2)sc1/N=N/c1ccc([N+](=O)[O-])cc1 (stereo not drawn) , CC50 reported as 280

The compound listed as Cc1nc(N2Nc3onc(-c4ccccc4)c3C2c2ccc(Cl)cc2)sc1/N=N/c1ccccc1 (stereo not drawn) has a reported CC50 of 260

Entry Cc1nc(N2Nc3onc(-c4ccccc4)c3C2c2ccc(Cl)cc2)sc1/N=N/c1ccc(Br)cc1 (stereo not drawn) ; CC50 = 390

CC50 for N/N=C(\N)N1Nc2onc(-c3ccccc3)c2C1c1ccc(Cl)cc1 (stereo not drawn) is 170

The recorded CC50 for Cc1csc(N2Nc3onc(-c4ccccc4)c3C2c2ccc(Cl)cc2)n1 (stereo not drawn) is 230
